Source of measurements: patent US20170166555A1

Tested on: MDA-MB-231 triple negative breast cancer cells
Assay: Anti-proliferative assay, cell-titre luminescent reagent, 72 h (GVK-BIO)
Format: cell-based
Conditions: 30, 3, 0.3 and 0.03 μM, linear regression (Tables 2-4)
endpoint.label: IC50 (µM)
Give bare numbers, in µM.

Record CN(C)CCCn1ccc2cc(Nc3cccc(C(=O)Nc4ccc(F)cc4)c3)ccc21 [Compound 4099] ; system MDA-MB-231 triple negative breast cancer cells; IC50 = 3.4

====

For each record, write down the corresponding IC50.
System: SK-Mel-28 melanoma cells
Test: Anti-proliferative assay, cell-titre luminescent reagent, 72 h (GVK-BIO)
Type: cell-based
Conditions: Homo sapiens, SK-MEL-28, 72 h, 30, 3, 0.3 and 0.03 μM, linear regression (Tables 2-4)
One number for each entry, in µM.

Some entries whose results are on file:
| structure.as.smiles | endpoint.label | result.unit | result.number |
| --- | --- | --- | --- |
| Cc1c(C)n(CCCN(C)C)c2ccc(C(=O)N3CCN(CCc4ccc(F)cc4)CC3)cc12 | IC50 | µM | 18.1 |
| CN(C)CCCn1ccc2cc(Cc3cccc(C(=O)Nc4ccc(F)cc4)c3)ccc21 | IC50 | µM | 3.7 |
| COc1ccc(NC(=O)c2cccc(Cc3ccc4c(c3)c(C)c(C)n4CCCN(C)C)c2)cc1 | IC50 | µM | 3.4 |
| COc1ccc(NC(=O)c2cccc(Oc3ccc4c(c3)c(C)c(C)n4CCCN(C)C)c2)cc1 | IC50 | µM | 4.3 |

Please look at the items below and tell me IC50 for each one, in order.
1. Cc1c(C)n(CCCN(C)C)c2ccc(Nc3cccc(C(=O)Nc4ccc(F)cc4)c3)cc12
2. Cc1c(C)n(CCCN(C)C)c2ccc(Nc3cccc(C(=O)Nc4ccc5c(c4)OCO5)c3)cc12
3. CN(C)CCCn1ccc2cc(Nc3cccc(C(=O)Nc4ccccc4)c3)ccc21
4. COc1cccc(NC(=O)c2cccc(Cc3ccc4c(ccn4CCCN(C)C)c3)c2)c1
5. COc1cccc(CCN2CCN(C(=O)c3ccc4c(c3)c(C)c(C)n4CCCN3CCN(C)CC3)CC2)c1
6. CN(C)CCCn1ccc2cc(Cc3cccc(C(=O)Nc4cccc(F)c4)c3)ccc21
7. CN(C)CCCn1ccc2cc(Nc3ccc(C(=O)Nc4ccc5c(c4)OCO5)cc3)ccc21
8. COc1cccc(NC(=O)c2cccc(Oc3ccc4c(ccn4CCCN(C)C)c3)c2)c1

Response:
1: 3; 2: 2.7; 3: 9.2; 4: 3.1; 5: 25; 6: 3.1; 7: 3.3; 8: 2.8

Below is a list of compounds. For each, state its recorded IC50.
1. COc1cccc(NC(=O)c2cccc(Nc3ccc4c(c3)c(C)c(C)n4CCCN(C)C)c2)c1
2. CN(C)CCCn1ccc2cc(Oc3ccc(C(=O)Nc4ccc(F)cc4)cc3)ccc21
3. CN(C)CCCn1ccc2cc(Cc3cccc(C(=O)Nc4ccc5c(c4)OCO5)c3)ccc21
4. Cc1c(C)n(CCCN2CCN(C)CC2)c2ccc(C(=O)N3CCN(CCc4ccccc4)CC3)cc12
5. COc1cccc(NC(=O)c2ccc(Oc3ccc4c(c3)c(C)c(C)n4CCCN(C)C)cc2)c1
6. CN(C)CCCn1ccc2cc(Oc3cccc(C(=O)Nc4ccccc4)c3)ccc21
7. Cc1c(C)n(CCCN(C)C)c2ccc(Oc3cccc(C(=O)Nc4ccc(F)cc4)c3)cc12

Response:
1. 2.1
2. 4.3
3. 2.5
4. 14.4
5. 3.6
6. 3.2
7. 2.5

Hello, I would appreciate it if you could give IC50 for each entry below.
1. COc1ccc(NC(=O)c2cccc(Nc3ccc4c(c3)c(C)c(C)n4CCCN(C)C)c2)cc1
2. COc1ccc(NC(=O)c2ccc(Cc3ccc4c(ccn4CCCN(C)C)c3)cc2)cc1

Response:
1: 3.1; 2: 1.9

Items follow; give IC50 for each.
1. CN(C)CCCn1ccc2cc(Nc3ccc(C(=O)Nc4ccccc4)cc3)ccc21
2. COc1ccc(CCN2CCN(C(=O)c3ccc4c(c3)c(C)c(C)n4CCCN3CCN(C)CC3)CC2)cc1
3. CN(C)CCCn1ccc2cc(Nc3cccc(C(=O)Nc4cccc(F)c4)c3)ccc21
4. Cc1c(C)n(CCCN(C)C)c2ccc(Oc3ccc(C(=O)Nc4ccccc4)cc3)cc12
5. Cc1c(C)n(CCCN(C)C)c2ccc(Cc3ccc(C(=O)Nc4cccc(F)c4)cc3)cc12
6. CN(C)CCCn1ccc2cc(Oc3cccc(C(=O)Nc4ccc(F)cc4)c3)ccc21
7. Cc1c(C)n(CCCN(C)C)c2ccc(Nc3cccc(C(=O)Nc4cccc(F)c4)c3)cc12

Response:
1: 5.9; 2: 14.7; 3: 2.5; 4: 3.8; 5: 10.5; 6: 3.4; 7: 2.7

Go through the items and report each one's IC50.
1. Cc1c(C)n(CCCN(C)C)c2ccc(C(=O)N3CCN(CCc4ccccc4)CC3)cc12
2. CN(C)CCCn1ccc2cc(Cc3ccc(C(=O)Nc4ccc(F)cc4)cc3)ccc21
3. Cc1c(C)n(CCCN(C)C)c2ccc(Nc3ccc(C(=O)Nc4ccc(F)cc4)cc3)cc12
4. Cc1c(C)n(CCCN2CCN(C)CC2)c2ccc(C(=O)N3CCN(CCc4ccc5c(c4)OCO5)CC3)cc12

Response:
1: 67.3; 2: 2.7; 3: 3.6; 4: 16.8

====

Tested on: glioblastoma (U251) cells
Experiment: Cell viability, CellTiter 96 AQueous, 72 hours
Type: cell-based
Conditions: Homo sapiens, U-251
endpoint.label: IC50 (µM)
Answers are plain numbers, in µM.

Tested on glioblastoma (U251) cells: Cc1c(C)n(CCCN(C)C)c2ccc(Oc3ccc(C(=O)Nc4ccc(F)cc4)cc3)cc12 . Observed IC50: 0.5

====

Assign IC50 to each entry below.
Test system: CaCo2 colorectal cancer cells
Assay: Anti-proliferative assay, cell-titre luminescent reagent, 72 h (GVK-BIO)
Type: cell-based
Details: Homo sapiens, Caco-2, 72 h, 30, 3, 0.3 and 0.03 μM, linear regression (Tables 2-4)
Numbers only, in µM.

Solved entries:
| structure.as.smiles | endpoint.label | result.number |
| --- | --- | --- |
| COc1ccc(NC(=O)c2cccc(Nc3ccc4c(c3)c(C)c(C)n4CCCN(C)C)c2)cc1 | IC50 | 2.8 |
| CN(C)CCCn1ccc2cc(Cc3cccc(C(=O)Nc4ccc(F)cc4)c3)ccc21 | IC50 | 5.2 |
| CN(C)CCCn1ccc2cc(Cc3cccc(C(=O)Nc4ccc5c(c4)OCO5)c3)ccc21 | IC50 | 3 |

Query compound follows.
Short answer on CaCo2 colorectal cancer cells for CN(C)CCCn1ccc2cc(Cc3ccc(C(=O)Nc4ccc(F)cc4)cc3)ccc21 , IC50: 3.3

====

Test system: SK-Mel-28 melanoma cells
Experiment: Anti-proliferative assay, cell-titre luminescent reagent, 72 h (GVK-BIO)
Format: cell-based
Conditions: 30, 3, 0.3 and 0.03 μM, linear regression (Tables 2-4)
endpoint.label: IC50 (µM)
One number for each entry, in µM.

Form: item CN(C)CCCn1ccc2cc(Nc3cccc(C(=O)Nc4ccc(F)cc4)c3)ccc21 ; test system SK-Mel-28 melanoma cells; IC50: 3.7

====

Tested on: CaCo2 colorectal cancer cells
Assay: Anti-proliferative assay, cell-titre luminescent reagent, 72 h (GVK-BIO)
Type: cell-based
Details: Homo sapiens, Caco-2, 72 h, 30, 3, 0.3 and 0.03 μM, linear regression (Tables 2-4)
Lab note - cut at 3 µM for IC50: yes (1) if strictly below, no (0) if not.

| compound | discrete.label |
| --- | --- |
| COc1ccc(NC(=O)c2ccc(Cc3ccc4c(ccn4CCCN(C)C)c3)cc2)cc1 [Compound 4078] | no (0) |
| Cc1c(C)n(CCCN2CCN(C)CC2)c2ccc(C(=O)N3CCN(CCc4cccc(F)c4)CC3)cc12 [Compound 4124] | no (0) |
| CN(C)CCCn1ccc2cc(Nc3cccc(C(=O)Nc4cccc(F)c4)c3)ccc21 [Compound 4070] | yes (1) |
| Cc1c(C)n(CCCN(C)C)c2ccc(Nc3ccc(C(=O)Nc4ccc(F)cc4)cc3)cc12 [Compound 4104] | no (0) |
| COc1ccc(CCN2CCN(C(=O)c3ccc4c(c3)c(C)c(C)n4CCCN3CCN(C)CC3)CC2)cc1 [Compound 4121] | no (0) |
| CN(C)CCCn1ccc2cc(Oc3cccc(C(=O)Nc4cccc(F)c4)c3)ccc21 [Compound 4059] | no (0) |
| Cc1c(C)n(CCCN(C)C)c2ccc(Oc3ccc(C(=O)Nc4cccc(F)c4)cc3)cc12 [Compound 4096] | yes (1) |

Prompt: Please indicate whether the reported IC50 of Cc1c(C)n(CCCN2CCN(C)CC2)c2ccc(C(=O)N3CCN(CCc4ccc5c(c4)OCO5)CC3)cc12 [Compound 4123] is strictly below 3 µM.
Response: no (0)

====

Test system: A549 non-small cell lung carcinoma cells
Assay: Anti-proliferative assay, cell-titre luminescent reagent, 72 h (GVK-BIO)
Type: cell-based
Conditions: Homo sapiens, A549, 72 h, 30, 10, 3, 1, 0.3 and 0.1 μM, nonlinear regression (Table 5), read-out: IC50/μM Lung (NSLC) A549
Give IC50 for every item shown.
Numbers only, in µM.

| compound | result.unit | IC50 |
| --- | --- | --- |
| Cc1c(C)n(CCCN2CCN(C)CC2)c2ccc(CN3CCN(CCc4ccc(F)cc4)CC3)cc12 [Compound 4110] | µM | 33.2 |
| Cc1c(C)n(CCCN(C)C)c2ccc(Oc3cccc(C(=O)Nc4ccccc4)c3)cc12 [Compound 4066] | µM | 8.5 |

I'm hoping you can list IC50 for every compound here, please.
1. COc1ccc(NC(=O)c2ccc(Oc3ccc4c(ccn4CCCN(C)C)c3)cc2)cc1 [Compound 4089]
2. Cc1c(C)n(CCCN(C)C)c2ccc(Cc3ccc(C(=O)Nc4ccccc4)cc3)cc12 [Compound 4087]
3. Cc1c(C)n(CCCN2CCN(C)CC2)c2ccc(CN3CCN(CCc4ccc5c(c4)OCO5)CC3)cc12 [Compound 4113]

Response:
7.7
8.9
5.2

Please give IC50 for each item listed below.
1. COc1ccc(NC(=O)c2ccc(Cc3ccc4c(c3)c(C)c(C)n4CCCN(C)C)cc2)cc1 [Compound 4083]
2. Cc1c(C)n(CCCN2CCN(C)CC2)c2ccc(CN3CCN(CCc4ccc(O)cc4)CC3)cc12 [Compound 4112]

Response:
[11.2, 5.9]
